Field: % PHAKPA (F129L) Disease level P2 at 16 ppm. Provide a value for each of the compounds that follow.
tested on: Phakopsora pachyrhizi (F129L); test: Protective control of soybean rust on soybeans (PHAKPA P2); type: in vivo; conditions: protective P2, 16 ppm, soybean rust F129L
One number for each entry, in %.

In the examples that follow, each entry is paired with its recorded % PHAKPA (F129L) Disease level P2 at 16 ppm.
1. CNC(=O)/C(=N/OC)c1cccc(C)c1CO/N=C(\C)c1ccccc1OC [Ex. 126] : 34
2. CO/N=C(/C(=O)OC)c1cccc(C)c1CO/N=C(\C)c1ccc(C)c(C(F)(F)F)c1 [compound 229] : 2
3. CO/N=C(/C(=O)OC)c1cccc(C)c1CO/N=C(\C)c1cc(C(F)(F)F)cc(C(F)(F)F)c1 [compound 34] : 90
4. CNC(=O)/C(=N/OC)c1cccc(C)c1CO/N=C(\C)c1ccc(F)cc1CC(F)(F)F [compound 394] : 3
5. CNC(=O)/C(=N/OC)c1cccc(C)c1CO/N=C(\C)c1cccc(F)c1F [compound 178] : 0

Please supply % PHAKPA (F129L) Disease level P2 at 16 ppm for each of the following items, keeping them in order.
1. CO/C=C(/C(=O)OC)c1cccc(C)c1CO/N=C(\C)c1c(Cl)ccc(Cl)c1OC(F)(F)F [compound 444]
2. CNC(=O)/C(=N/OC)c1cccc(Br)c1CO/N=C(\C)c1ccccc1 [compound 396]
3. CNC(=O)/C(=N/OC)c1cccc(C)c1CO/N=C(\C)c1ccccc1C(C)C [compound 220]

1. 47
2. 0
3. 30

----------
test system: Phakopsora pachyrhizi (F129L); test: Protective control of soybean rust on soybeans (PHAKPA P2); format: in vivo; details: protective P2, 16 ppm, soybean rust F129L
endpoint_label: % PHAKPA (F129L) Disease level P2 at 16 ppm (%)
Answers are plain numbers, in %.

1) COC=C(C(=O)OC)c1cccc(C)c1CON=C(C)c1ccc(Cl)c(F)c1OC(F)(F)F : 6

Could you tell me % PHAKPA (F129L) Disease level P2 at 16 ppm for each of these molecules? They are listed below.
1. CO/N=C(/C(=O)OC)c1cccc(C)c1CO/N=C(\C)c1ccc(Oc2ccc(Cl)cc2)cc1C(F)(F)F
2. CNC(=O)/C(=N/OC)c1cccc(C)c1CO/N=C(\C)c1ccc(C)c(C)c1
3. CO/N=C(/C(=O)OC)c1cccc(C)c1CO/N=C(\C)c1cccc(C2CC2)c1
4. CO/N=C(/C(=O)OC)c1cccc(C)c1CO/N=C(\C)c1cc(C)cc(C(F)(F)F)c1
5. CO/N=C(/C(=O)OC)c1cccc(C)c1CO/N=C(\C)c1ccc(F)cc1
6. CNC(=O)/C(=N/OC)c1cccc(C)c1CO/N=C(\C)c1cc(Cl)cc(Cl)c1F
7. CO/N=C(/C(=O)OC)c1cccc(C)c1CO/N=C(\C)c1ccc(Br)cc1
8. CO/N=C(/C(=O)OC)c1cccc(C)c1CO/N=C(\C)c1cc(Br)cc(F)c1F

[53, 2, 37, 77, 3, 0, 5, 8]

----------
tested on: Phakopsora pachyrhizi (F129L); assay: Protective control of soybean rust on soybeans (PHAKPA P6); assay type: in vivo; details: protective P6, 4 ppm, soybean rust F129L
endpoint_label: % PHAKPA (F129L) Disease level P6 at 4 ppm (%)
Answers are plain numbers, in %.

1) CO/N=C(/C(=O)OC)c1cccc(Br)c1CO/N=C(\C)c1ccccc1 : 67

Please supply % PHAKPA (F129L) Disease level P6 at 4 ppm for each of the following items, keeping them in order.
1. CNC(=O)/C(=N/OC)c1cccc(C)c1CO/N=C(\C)c1cc(Cl)cc(Cl)c1
2. CNC(=O)/C(=N/OC)c1cccc(C)c1CO/N=C(\C)c1c(F)cc(F)cc1C(F)(F)F

1. 13
2. 18

Go through the list and state % PHAKPA (F129L) Disease level P6 at 4 ppm for each entry.
1. CNC(=O)/C(=N/OC)c1cccc(C)c1CO/N=C(\C)c1ccccc1C(C)(F)F
2. CNC(=O)/C(=N/OC)c1cccc(C)c1CO/N=C(\C)c1ccc(F)cc1CC(F)(F)F
3. CCc1cc(/C(C)=N/OCc2c(C)cccc2/C(=N\OC)C(=O)NC)cc(C(F)(F)F)c1

1. 85
2. 12
3. 53

Look at each compound and report its % PHAKPA (F129L) Disease level P6 at 4 ppm.
1. CO/N=C(/C(=O)OC)c1cccc(C)c1CO/N=C(\C)c1cc(Br)cc(Br)c1
2. CNC(=O)/C(=N/OC)c1cccc(C)c1CO/N=C(\C)c1c(F)ccc(F)c1OC(F)(F)F
3. CNC(=O)/C(=N/OC)c1cccc(C)c1CO/N=C(\C)c1ccc(C(F)(F)F)cc1
4. CO/N=C(/C(=O)OC)c1cccc(C)c1CO/N=C(\C)c1ccccc1C
5. CNC(=O)/C(=N/OC)c1cccc(C)c1CO/N=C(\C)c1cc(Cl)ccc1C(F)(F)F

16
5
15
92
13
